test system: Mycobacterium tuberculosis Erdman (autoluminescent); assay: Einf, fitted maximum growth inhibition of three-drug combination (fraction); higher = stronger maximal inhibition; conditions: in vitro model: acidic pH 5.7; time point: terminal (~4-5 doublings, model-specific)
METRIC: Einf
Form: value (number only, do not type unit).

MOLECULE | MEAS VALUE
COc1nc2ccc(Br)cc2cc1[C@@H](c1ccccc1)[C@@](O)(CCN(C)C)c1cccc2ccccc12 [bedaquiline] + NC(=O)c1cnccn1 [pyrazinamide] + CO[C@H]1/C=C/O[C@@]2(C)Oc3c(C)c(O)c4c(O)c(c(/C=N/N5CCN(C)CC5)c(O)c4c3C2=O)NC(=O)/C(C)=C\C=C\[C@H](C)[C@H](O)[C@@H](C)[C@@H](O)[C@@H](C)[C@H](OC(C)=O)[C@@H]1C [rifampicin] | 0.981
COc1nc2ccc(Br)cc2cc1[C@@H](c1ccccc1)[C@@](O)(CCN(C)C)c1cccc2ccccc12 [bedaquiline] + COc1c(N2C[C@@H]3CCCN[C@@H]3C2)c(F)cc2c(=O)c(C(=O)O)cn(C3CC3)c12 [moxifloxacin] + CO[C@H]1/C=C/O[C@@]2(C)Oc3c(C)c(O)c4c(O)c(c(/C=N/N5CCN(C6CCCC6)CC5)c(O)c4c3C2=O)NC(=O)/C(C)=C\C=C\[C@H](C)[C@H](O)[C@@H](C)[C@@H](O)[C@@H](C)[C@H](OC(C)=O)[C@@H]1C [rifapentine] | 0.994
COc1nc2ccc(Br)cc2cc1[C@@H](c1ccccc1)[C@@](O)(CCN(C)C)c1cccc2ccccc12 [bedaquiline] + O=[N+]([O-])c1cn2c(n1)OC[C@@H](OCc1ccc(OC(F)(F)F)cc1)C2 [pretomanid] + CO[C@H]1/C=C/O[C@@]2(C)Oc3c(C)c(O)c4c(O)c(c(/C=N/N5CCN(C6CCCC6)CC5)c(O)c4c3C2=O)NC(=O)/C(C)=C\C=C\[C@H](C)[C@H](O)[C@@H](C)[C@@H](O)[C@@H](C)[C@H](OC(C)=O)[C@@H]1C [rifapentine] | 0.987

Form field: reported Einf of CC[C@@H](CO)NCCN[C@@H](CC)CO [ethambutol] + CC(=O)NC[C@H]1CN(c2ccc(N3CCOCC3)c(F)c2)C(=O)O1 [linezolid] + CO[C@H]1/C=C/O[C@@]2(C)Oc3c(C)c(O)c4c(O)c(c(/C=N/N5CCN(C6CCCC6)CC5)c(O)c4c3C2=O)NC(=O)/C(C)=C\C=C\[C@H](C)[C@H](O)[C@@H](C)[C@@H](O)[C@@H](C)[C@H](OC(C)=O)[C@@H]1C [rifapentine]
0.967

* * *

system: Mycobacterium tuberculosis Erdman (autoluminescent); experiment: GRinf, maximum normalised growth rate inhibition (three-drug combination) (unitless (-1 to 1)); higher = less effect (negative = killing); settings: in vitro model: acidic pH 5.7; time point: constant (~7 days, model-specific)
METRIC: GRinf
Form: value (number only, do not type unit).

Worked examples, 4 molecules total:
MOLECULE | TEST TARGET | GRinf
CC(=O)NC[C@H]1CN(c2ccc(N3CCOCC3)c(F)c2)C(=O)O1 [linezolid] + COc1c(N2C[C@@H]3CCCN[C@@H]3C2)c(F)cc2c(=O)c(C(=O)O)cn(C3CC3)c12 [moxifloxacin] + O=[N+]([O-])c1cn2c(n1)OC[C@@H](OCc1ccc(OC(F)(F)F)cc1)C2 [pretomanid] | Mycobacterium tuberculosis Erdman (autoluminescent) | -0.748
CC(C)/N=c1\cc2n(-c3ccc(Cl)cc3)c3ccccc3nc-2cc1Nc1ccc(Cl)cc1 [clofazimine] + COc1c(N2C[C@@H]3CCCN[C@@H]3C2)c(F)cc2c(=O)c(C(=O)O)cn(C3CC3)c12 [moxifloxacin] + CO[C@H]1/C=C/O[C@@]2(C)Oc3c(C)c(O)c4c(O)c(c(/C=N/N5CCN(C)CC5)c(O)c4c3C2=O)NC(=O)/C(C)=C\C=C\[C@H](C)[C@H](O)[C@@H](C)[C@@H](O)[C@@H](C)[C@H](OC(C)=O)[C@@H]1C [rifampicin] | Mycobacterium tuberculosis Erdman (autoluminescent) | 0.0586
NNC(=O)c1ccncc1 [isoniazid] + O=[N+]([O-])c1cn2c(n1)OC[C@@H](OCc1ccc(OC(F)(F)F)cc1)C2 [pretomanid] + CO[C@H]1/C=C/O[C@@]2(C)Oc3c(C)c(O)c4c(O)c(c(/C=N/N5CCN(C6CCCC6)CC5)c(O)c4c3C2=O)NC(=O)/C(C)=C\C=C\[C@H](C)[C@H](O)[C@@H](C)[C@@H](O)[C@@H](C)[C@H](OC(C)=O)[C@@H]1C [rifapentine] | Mycobacterium tuberculosis Erdman (autoluminescent) | -0.193
CC(=O)NC[C@H]1CN(c2ccc(N3CCOCC3)c(F)c2)C(=O)O1 [linezolid] + NC(=O)c1cnccn1 [pyrazinamide] + CO[C@H]1/C=C/O[C@@]2(C)Oc3c(C)c(O)c4c(O)c(c(/C=N/N5CCN(C6CCCC6)CC5)c(O)c4c3C2=O)NC(=O)/C(C)=C\C=C\[C@H](C)[C@H](O)[C@@H](C)[C@@H](O)[C@@H](C)[C@H](OC(C)=O)[C@@H]1C [rifapentine] | Mycobacterium tuberculosis Erdman (autoluminescent) | -0.206

Okay, next one:
What value of GRinf on Mycobacterium tuberculosis Erdman (autoluminescent) does CC[C@@H](CO)NCCN[C@@H](CC)CO [ethambutol] + O=[N+]([O-])c1cn2c(n1)OC[C@@H](OCc1ccc(OC(F)(F)F)cc1)C2 [pretomanid] + CO[C@H]1/C=C/O[C@@]2(C)Oc3c(C)c(O)c4c(O)c(c(/C=N/N5CCN(C6CCCC6)CC5)c(O)c4c3C2=O)NC(=O)/C(C)=C\C=C\[C@H](C)[C@H](O)[C@@H](C)[C@@H](O)[C@@H](C)[C@H](OC(C)=O)[C@@H]1C [rifapentine] have?
-0.167

* * *

test system: Mycobacterium tuberculosis Erdman (autoluminescent); assay: GRinf, maximum normalised growth rate inhibition (three-drug combination) (unitless (-1 to 1)); higher = less effect (negative = killing); conditions: in vitro model: butyrate; time point: constant (~7 days, model-specific)
GRinf reference
Form: value (number only, do not type unit).

COMPOUND | GRinf
CC(C)/N=c1\cc2n(-c3ccc(Cl)cc3)c3ccccc3nc-2cc1Nc1ccc(Cl)cc1 [clofazimine] + CC[C@@H](CO)NCCN[C@@H](CC)CO [ethambutol] + CO[C@H]1/C=C/O[C@@]2(C)Oc3c(C)c(O)c4c(O)c(c(/C=N/N5CCN(C)CC5)c(O)c4c3C2=O)NC(=O)/C(C)=C\C=C\[C@H](C)[C@H](O)[C@@H](C)[C@@H](O)[C@@H](C)[C@H](OC(C)=O)[C@@H]1C [rifampicin] | -0.114

Form field: reported GRinf of COc1c(N2C[C@@H]3CCCN[C@@H]3C2)c(F)cc2c(=O)c(C(=O)O)cn(C3CC3)c12 [moxifloxacin] + NC(=O)c1cnccn1 [pyrazinamide] + CO[C@H]1/C=C/O[C@@]2(C)Oc3c(C)c(O)c4c(O)c(c(/C=N/N5CCN(C)CC5)c(O)c4c3C2=O)NC(=O)/C(C)=C\C=C\[C@H](C)[C@H](O)[C@@H](C)[C@@H](O)[C@@H](C)[C@H](OC(C)=O)[C@@H]1C [rifampicin]
0.125

Proceed to CC[C@@H](CO)NCCN[C@@H](CC)CO [ethambutol] + CC(=O)NC[C@H]1CN(c2ccc(N3CCOCC3)c(F)c2)C(=O)O1 [linezolid] + CO[C@H]1/C=C/O[C@@]2(C)Oc3c(C)c(O)c4c(O)c(c(/C=N/N5CCN(C6CCCC6)CC5)c(O)c4c3C2=O)NC(=O)/C(C)=C\C=C\[C@H](C)[C@H](O)[C@@H](C)[C@@H](O)[C@@H](C)[C@H](OC(C)=O)[C@@H]1C [rifapentine]
0.0937

Proceed to NNC(=O)c1ccncc1 [isoniazid] + NC(=O)c1cnccn1 [pyrazinamide] + CO[C@H]1/C=C/O[C@@]2(C)Oc3c(C)c(O)c4c(O)c(c(/C=N/N5CCN(C)CC5)c(O)c4c3C2=O)NC(=O)/C(C)=C\C=C\[C@H](C)[C@H](O)[C@@H](C)[C@@H](O)[C@@H](C)[C@H](OC(C)=O)[C@@H]1C [rifampicin]
0.00703

Proceed to CC(=O)NC[C@H]1CN(c2ccc(N3CCOCC3)c(F)c2)C(=O)O1 [linezolid] + COc1c(N2C[C@@H]3CCCN[C@@H]3C2)c(F)cc2c(=O)c(C(=O)O)cn(C3CC3)c12 [moxifloxacin] + O=[N+]([O-])c1cn2c(n1)OC[C@@H](OCc1ccc(OC(F)(F)F)cc1)C2
0.0148

Proceed to CC[C@@H](CO)NCCN[C@@H](CC)CO [ethambutol] + COc1c(N2C[C@@H]3CCCN[C@@H]3C2)c(F)cc2c(=O)c(C(=O)O)cn(C3CC3)c12 [moxifloxacin] + O=[N+]([O-])c1cn2c(n1)OC[C@@H](OCc1ccc(OC(F)(F)F)cc1)C2 [pretomanid]
-0.0315

Proceed to COc1nc2ccc(Br)cc2cc1[C@@H](c1ccccc1)[C@@](O)(CCN(C)C)c1cccc2ccccc12 [bedaquiline] + CC[C@@H](CO)NCCN[C@@H](CC)CO [ethambutol] + CC(=O)NC[C@H]1CN(c2ccc(N3CCOCC3)c(F)c2)C(=O)O1 [linezolid]
-0.0747

Proceed to CC(C)/N=c1\cc2n(-c3ccc(Cl)cc3)c3ccccc3nc-2cc1Nc1ccc(Cl)cc1 [clofazimine] + COc1c(N2C[C@@H]3CCCN[C@@H]3C2)c(F)cc2c(=O)c(C(=O)O)cn(C3CC3)c12 [moxifloxacin] + O=[N+]([O-])c1cn2c(n1)OC[C@@H](OCc1ccc(OC(F)(F)F)cc1)C2 [pretomanid]
-0.41

Proceed to COc1c(N2C[C@@H]3CCCN[C@@H]3C2)c(F)cc2c(=O)c(C(=O)O)cn(C3CC3)c12 [moxifloxacin] + O=[N+]([O-])c1cn2c(n1)OC[C@@H](OCc1ccc(OC(F)(F)F)cc1)C2 [pretomanid] + CO[C@H]1/C=C/O[C@@]2(C)Oc3c(C)c(O)c4c(O)c(c(/C=N/N5CCN(C6CCCC6)CC5)c(O)c4c3C2=O)NC(=O)/C(C)=C\C=C\[C@H](C)[C@H](O)[C@@H](C)[C@@H](O)[C@@H](C)[C@H](OC(C)=O)[C@@H]1C [rifapentine]
-0.00663

Proceed to CC[C@@H](CO)NCCN[C@@H](CC)CO [ethambutol] + COc1c(N2C[C@@H]3CCCN[C@@H]3C2)c(F)cc2c(=O)c(C(=O)O)cn(C3CC3)c12 [moxifloxacin] + NC(=O)c1cnccn1 [pyrazinamide]
0.001
